Assay: Half life in Sprague-Dawley rat at 1 mg/kg, iv or 3 mg/kg, po
Assay type: ADME, organism-based
Settings: in vivo
Below is a list of entries, each paired with its recorded half-life value.
MEASURED_PARAMETER: half-life (h)

1) Cn1c(=O)sc2ccc(-c3ccc(C[C@@H](C#N)NC(=O)[C@@H]4CNCCCO4)cc3)cc21
8
2) N#C[C@H](Cc1ccc(-c2ccc3oc(=O)n(CC(F)F)c3c2)cc1)NC(=O)[C@@H]1CNCCCO1
7
3) Cn1c(=O)oc2ccc(-c3ccc(C[C@@H](C#N)NC(=O)[C@@H]4CNCCCO4)cc3)cc21 [BRENSOCATIB]
7
4) Cc1cc(-c2ccc(C[C@@H](C#N)NC(=O)[C@@H]3CNCCCO3)cc2)cc2c1oc(=O)n2C
8
5) CCn1c(=O)oc2ccc(-c3ccc(C[C@@H](C#N)NC(=O)[C@@H]4CNCCCO4)cc3)cc21
8
